# System tested: human mAChR M1 (Homo sapiens, UniProt P11229)
# Sequence (P11229 whole entry): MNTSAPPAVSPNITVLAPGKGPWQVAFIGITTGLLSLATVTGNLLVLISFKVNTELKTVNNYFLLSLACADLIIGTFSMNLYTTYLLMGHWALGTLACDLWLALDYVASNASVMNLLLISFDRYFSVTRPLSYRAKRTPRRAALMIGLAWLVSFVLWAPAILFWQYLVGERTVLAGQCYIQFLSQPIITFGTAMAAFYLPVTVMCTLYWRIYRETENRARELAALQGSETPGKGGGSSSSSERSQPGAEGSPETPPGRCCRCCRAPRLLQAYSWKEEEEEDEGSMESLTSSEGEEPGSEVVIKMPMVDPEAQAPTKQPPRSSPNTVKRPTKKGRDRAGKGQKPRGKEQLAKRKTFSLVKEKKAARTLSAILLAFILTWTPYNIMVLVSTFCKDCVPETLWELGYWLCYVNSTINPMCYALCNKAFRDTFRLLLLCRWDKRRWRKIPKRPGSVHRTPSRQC
# Method: mAChR M1 cell-based functional assay (calcium mobilization, PAM activity)
# Experimental context: CHO-K1 cells expressing hM1; calcium flux (Fluo-4); potentiation of EC20 acetylcholine response
// reported Emax for each item listed
Please respond with the number in % and leave the unit unwritten.

                                   compound                             system_tested  endpoint_label  readout_value
0  Cc1cn2cc(Cc3ccc(-c4ccn(C)n4)cc3)cc(C(=O)N[C@H]3CCOC[C@@H]3O)c2n1 [compound 21]  human mAChR M1 (Homo sapiens, UniProt P11229)            Emax             43
1  O=C(N[C@H]1CCCC[C@@H]1O)c1cc(Cc2ccc(-n3cccn3)cc2)cc2ncnn12 [compound 20]  human mAChR M1 (Homo sapiens, UniProt P11229)            Emax             82

What value of Emax has been recorded for this entry: Cc1c(Cc2ccc(-c3cnn(C)c3)cc2F)cc(C(=O)N[C@H]2CCCC[C@@H]2O)c2nccn12 [compound 57]
68

What value of Emax has been recorded for this entry: Cn1ccc(-c2ccc(Cc3cc(C(=O)N[C@H]4CCCC[C@@H]4O)c4nccn4c3)cn2)n1 [compound 25]
83
